target.under.test: mouse B6 MHC class I antigens (H-2b: D^b or K^b) on the surface of RMA-S cells (mouse)
protocol.description: binding of 9mer peptides within p117-139 to mouse B6 (H-2b) class I antigens; RMA-S assay as for Table XLVII
Below is a list of entries, each paired with its recorded Binding Affinity to Mouse MHC Class I value.
Write the answer as a number in %, unit excluded.

Below, each entry is followed by its recorded Binding Affinity to Mouse MHC Class I result.
> print(dat)
                                  binder  readout.value
 1  NAPYLPSCL [WT1 peptide P130-138 (…)]             79
 2  SQASSGQAR [WT1 peptide P118-126 (…)]              2
 3  MFPNAPYLP [WT1 peptide P127-135 (…)]              2
 4  FPNAPYLPS [WT1 peptide P128-136 (…)]              1
 5  APYLPSCLE [WT1 peptide P131-139 (…)]              1
 6  QARMFPNAP [WT1 peptide P124-132 (…)]              1
 7  SSGQARMFP [WT1 peptide P121-129 (…)]              1
 8  ARMFPNAPY [WT1 peptide P125-133 (…)]              1
 9  PSQASSGQA [WT1 peptide P117-125 (…)]              2
10  ASSGQARMF [WT1 peptide P120-128 (…)]              1

Record QASSGQARM [WT1 peptide P119-127 (…)] . Reported Binding Affinity to Mouse MHC Class I: 2

Binding Affinity to Mouse MHC Class I reported for this binder PNAPYLPSC [WT1 peptide P129-137 (…)] : 1
